# System: CDC2L1
# Construct: gene CDK11B
# test conditions: concentration: 1 μM, replicates: in singlicate; n = 1;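 also: KINOMEscan kinase panel screen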
observed property: %Inh (%)
Unit % implied. Number only.

Use these answered entries as a reference point.
compound	%Inh, %
COc1cccc(-c2cc(-c3c[nH]nc3-c3ccccn3)ccn2)c1	0
Nc1nc(-c2nccs2)c(-c2ccnc3ccccc23)s1	0
COc1ccc(Nc2nccc(-c3cccc(NC(=O)c4cc5cc(F)ccc5[nH]4)c3)n2)cc1	4
Cn1ccc2ncnc(Oc3ccc(NC(=O)Nc4ccccc4)cc3)c21	0
Cc1ccc(C(=O)Nc2ccc(Nc3ccnc4cc(-c5ccccn5)ccc34)cc2O)cc1.Cl	0
Cc1cc(-c2ccc3c(c2)CC[C@@H](N[C@@H](C)c2ccccc2)C3)cnc1N.Cl	0
Cc1cccc(-c2nc(Nc3cccc(C(N)=O)c3)c3ccccc3n2)n1	0
Cl.O=C(Nc1cccc(-c2nn3ncccc3c2-c2ccnc(Nc3cccnc3)n2)c1)c1c(F)cccc1F	3
Cc1nnc(-c2ccc3occ(-c4ccc(S(C)=O)cc4)c3c2)[nH]1 (stereo not shown)	0
Cc1c(O)cccc1Nc1ccnc2ccc(C(F)(F)F)cc12.Cl	0

Under CDC2L1: %Inh value of `Cc1cc(NCC(c2ccccc2)c2ccccc2)nc(NCc2ccc(C(F)(F)F)cc2)n1` ?
0

What measured %Inh is associated with `CN(C)CCN(C)C(=O)c1cc(-c2ccncc2)c(-c2ccc(Cl)c(O)c2)o1.Cl.Cl` on CDC2L1?
0

Lab note: need %Inh for `COc1ccccc1CNC(=O)c1cc(C(=O)c2ccccc2C)c[nH]1` on CDC2L1, anyone have it?
0

Look up %Inh with CDC2L1 for this compound: `Fc1cccc(COc2nnc(-c3ccc4c(c3)CCO4)o2)c1`
1

Tell me reported %Inh for `Cn1cncc1-c1ccc2ncnc(Nc3ccc(OCc4ccccc4)cc3)c2c1` , tested with CDC2L1.
0

Recorded %Inh for `O=C(O)COc1ncnc2cc(-c3ccc4[nH]ncc4c3)sc12` with CDC2L1, please?
8

Form field: %Inh recorded for `COc1ccccc1-c1ccc2c(NC(=O)C3CC3)n[nH]c2n1` with CDC2L1 (enter value)
0

Look up %Inh with CDC2L1 for this compound: `C[C@@H]1CCCCN1c1cc(-c2ccc3c(N)n[nH]c3c2)nc(N)n1`
0

Enter reported %Inh observed with CDC2L1 for `Cc1cc(N2Cc3ccccc3C2)nc(Nc2ccc(S(=O)(=O)N3CCOCC3)cc2)n1.Cl`
0

----------
# Tested on: OSR1
# Construct: gene OXSR1
# test conditions: concentration: 1 μM, replicates: in singlicate; n = 1
Decide by %Inh: equal to or exceeding 8% means TRUE, less means FALSE.

Past entries and their recorded results:
compound	category label
Nc1ncnc2[nH]c(-c3ccccc3)nc12 [AH5015]	TRUE
Cc1cccc(-c2nc(Nc3ccc4[nH]ncc4c3)c3ccccc3n2)n1 [GW857175]	TRUE
COc1ccc(C2=C(Nc3cccc(C(=O)O)c3)C(=O)NC2=O)cc1 [SB-390765]	TRUE
Cl.c1ccc(-c2n[nH]cc2-c2ccnc(-c3ccc(CN4CCOCC4)cc3)c2)nc1 [GW776245]	FALSE
CCn1c(-c2ccccn2)nc2cnccc21 [SB-736398]	FALSE
Cc1cccc(-c2cc(Nc3ccncc3)c3ccccc3n2)n1 [GSK223675]	FALSE
NC(=O)c1nnc2ccccc2c1N	TRUE
Cc1cccc(-c2nc(C)cc(Nc3ccncc3)n2)n1 [GSK257997]	TRUE

With those in mind, consider the next compound.
Does the reported %Inh for `CC(=O)Nc1nc2cnc(Nc3cc(NC(=O)c4cccc(CCC#N)c4)ccc3C)nc2s1` fall at or above the 8% mark?
FALSE

----------
# Test system: RPS6KA5(Kin.Dom.2-C-terminal)
# test conditions: concentration: 1 μM, replicates: in singlicate; n = 1
Decision: %Inh >= 20% yields rule met, all other cases yield rule not met.

Quick check, %Inh >= 20%? `Cc1cccc(-c2cc(Nc3ccncc3)c3ccccc3n2)n1`
rule met

Please check the record `Cc1ccc(C(=O)Nc2ccc(Nc3ccnc4cc(-c5ccccn5)ccc34)cc2O)cc1.Cl` and state if its %Inh is at or above 20%.
rule not met

Quick check: does `Cl.c1ccc(-c2n[nH]cc2-c2ccnc(-c3ccc(CN4CCOCC4)cc3)c2)nc1` have %Inh greater than or equal to 20%?
rule met

Kindly determine if %Inh recorded for `NC(=O)c1nnc2ccccc2c1N` is above or exactly 20%.
rule met

Could you tell me if the measured %Inh of `O=C(Nc1n[nH]c2nc(-c3nccs3)c(Br)cc12)C1CC1` reaches 20% or more?
rule not met

----------
# System: MRCKB
# Construct: gene CDC42BPB
# test conditions: concentration: 1 μM, replicates: in singlicate; n = 1
This section presents molecules with their documented %Inh values.
Output spec: scalar in %, unitless text.

molecule	tested on	observed property	observed measurement
O=C(O)COc1ncnc2cc(-c3ccc4[nH]ncc4c3)sc12	MRCKB	%Inh	0
Cc1cccc(-c2cc(Nc3ccncc3)c3ccccc3n2)n1 [GSK223675]	MRCKB	%Inh	0
COC(=O)c1c(-c2ccccc2)c2cc(OC)ccc2c(=O)n1Cc1ccccc1	MRCKB	%Inh	0

Can you share its %Inh? I mean this molecule: COc1cc2ncn(-c3cc(OCC4CCCO4)c(C(N)=O)s3)c2cc1OC (centres unmarked) [GSK204607]
0

// lookup %Inh for COc1cccc(NC(=O)NC2CCN(c3ccnc(Nc4ccc(F)cc4)n3)C2)c1 (centres unmarked) [GSK1379721]
0

----------
Listed below: %Inh values for each entry.
# System: RIPK1
# test conditions: concentration: 1 μM, replicates: in singlicate; n = 1
// note: answer is a bare numeric in %

compound	%Inh (%)
Cl.NC(=O)c1cccc(Nc2nccc(Nc3ccc(Oc4cccc(Cl)c4)c(Cl)c3)n2)c1 [GW659008]	27
COc1cccc(NC(=O)NC2CCN(c3ccnc(Nc4ccc(F)cc4)n3)C2)c1 (stereo not shown) [GSK1379721]	29
COc1cccc(-c2cc(-c3c[nH]nc3-c3ccccn3)ccn2)c1 [GW680338]	19
Cn1ccc2ncnc(Oc3ccc(NC(=O)Nc4ccccc4)cc3)c21	5
NC(=O)c1nnc2ccccc2c1N	0

Field request: %Inh | item: COc1ccc(CNC(=O)NC2CCN(c3ccnc(Nc4cc(OC)c(OC)c(OC)c4)n3)C2)cc1 (stereo not shown) [GSK1379748]
17

// lookup %Inh for `O=C(O)COc1ncnc2cc(-c3ccc4[nH]ncc4c3)sc12`
0

# get_value(readout='%Inh', item= COc1ccc(C2=C(Nc3cccc(C(=O)O)c3)C(=O)NC2=O)cc1 [SB-390765] )
0

Data request, read-out %Inh, for Cl.O=C(Nc1cccc(-c2nn3ncccc3c2-c2ccnc(Nc3cccnc3)n2)c1)c1c(F)cccc1F [GSK312879]
0

So what's the measured %Inh for this one? Cc1csc(-c2nc(Nc3ccncc3)c3ccccc3n2)n1 [GW869640]
0

----------
# Test system: ACVR2B
# test conditions: concentration: 1 μM, replicates: in singlicate; n = 1
Please note: %Inh exactly at 4% is F. Only values below 4% get T.

// below: answered molecules
molecule	tested on	category label
Cl.Oc1ccc(-c2nc(-c3ccccc3)[nH]c2-c2ccncc2)cc1	ACVR2B	F
COC(=O)c1c(-c2ccccc2)c2cc(C(=O)O)ccc2c(=O)n1Cc1ccccc1	ACVR2B	T
Fc1cc(Cl)ccc1Nc1ccnc2cc(I)ccc12	ACVR2B	F
Fc1cc(Cl)ccc1Nc1ccnc2cc(-c3ccc(CN4CCCCC4)o3)ccc12	ACVR2B	F
Cc1c(O)cccc1Nc1ccnc2ccc(C(F)(F)F)cc12.Cl	ACVR2B	F
CC(C)(C)c1ccc(C(=O)Nc2cn3cc(-c4cccnc4)ccc3n2)cc1	ACVR2B	T

Field: below-cutoff. Rule: recorded %Inh strictly less than 4%. Subject: `O=C(Nc1ccccc1)Nc1cccc(Oc2ccc3nccn3n2)c1`
F

Dear colleague, could you confirm whether %Inh of CC1=C(C(=O)Nc2cc3cn[nH]c3cc2F)C(c2ccc(C(F)(F)F)cc2)CC(=O)N1 (stereo not shown) falls below 4%? Thanks.
T

Determine whether this molecule shows %Inh lower than 4% (ties excluded): `COc1cc2ncnc(Nc3ccc4nc(-c5ccccc5)[nH]c4c3)c2cc1OC.Cl`
T

Is %Inh of `NC(=O)c1nnc2ccccc2c1N` strictly below 4%?
F

Check if %Inh falls below 4% for `COc1ccc(Nc2nccc(NCCNC(=O)Nc3ccccc3F)n2)cc1` .
T

Would you kindly verify if %Inh of `CS(=O)(=O)c1ccc(-c2nc3n(c2-c2ccncc2)CCC3)cc1` is strictly less than 4%?
T

Lab note: %Inh threshold 4%. Does this molecule come in strictly under it? `Cc1cccc(-c2nc(-c3ccc(S(C)(=O)=O)cc3)sc2-c2ccnc(NCCc3ccccc3)c2)c1`
T

Does the reported %Inh of `COc1cc2nccc(Nc3ccc(NC(=O)c4ccc(C)cc4)c(O)c3)c2cc1OC.Cl` stay below 4%?
T

%Inh strictly < 4% for this molecule? `Cc1ccc(-c2cc(-c3c[nH]nc3-c3ccccn3)ccn2)cc1`
F

Identify whether the molecule `O=c1cc(N2CCOCC2)nc2n(Cc3cccc(Cl)c3Cl)ccn12` records %Inh below 4%.
T

Hello, I'm reviewing records and need to know if %Inh of Cc1nnc(-c2ccc3occ(-c4ccc(S(C)=O)cc4)c3c2)[nH]1 (stereo not shown) is below 4%. Could you check?
F

I'd appreciate it if you could check whether `Cn1ccc2ncnc(Oc3ccc(Nc4nc5ccccc5[nH]4)cc3)c21` has %Inh smaller than 4%.
T
